Origin of the recorded values: PubChem BioAssay AID651640

Test: inhibitors of DENV2 cytopathic effect, primary screen, cell-based, plate reader, single concentration (AID 651640);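 note: 0% = median of neutral control wells and 100% = median of positive control wells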
Details: DENV2-infected cells, cytopathic effect rescue, at 9.99 µM, hits give high values
Among all 350,000 compounds or so, about 6,000 (1.7%) were called active. Inconclusive results (about 5%) are left out. What follows is part of a selection rich in actives, with near analogues and random picks from the rest.
Endpoint name: CPE inhibition (%)
Please respond with the number in % and leave the unit unwritten.

Molecule: COCC#Cc1cnc2c(c1)C(=O)N([C@H](C)CO)C[C@H](C)[C@H](CN(C)C(=O)Cc1cccnc1)O2
CPE inhibition [%]: -4.96
--
Molecule: C[C@H]1CN([C@@H](C)CO)S(=O)(=O)c2ccc(C#Cc3ccccc3)cc2O[C@@H]1CN(C)C(=O)C1CC1
CPE inhibition [%]: 19.8
--
Molecule: CC(C)C[C@H](NC(=O)CC1CCCC1)C(=O)N1CCC[C@H]1C(=O)NCc1ccccc1
CPE inhibition [%]: -0.111

// moving on: another record for CPE inhibition
Quickly give me recorded CPE inhibition for COc1ccc(CN2C[C@H]3CON(C)[C@H]3C[C@H]2c2ccc(-c3cccc(F)c3)cc2)cc1
27.4

---

Test: inhibitors of DENV2 cytopathic effect, primary screen, cell-based, plate reader, single concentration (AID 651640);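 note: 0% = median of neutral control wells and 100% = median of positive control wells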
Conditions: DENV2-infected cells, cytopathic effect rescue, at 9.99 µM
The whole screen tested about 350,000 compounds, of which about 6,000 (1.7%) were called active. Roughly 5% stayed inconclusive and do not appear here. No stated cut-off is given here; in the data, active means CPE inhibition above about 20% (passing the limit was not always enough); inconclusive means no clear call, values can overlap the other calls; tested in BHK-21 cells. The full list was thinned out, with actives kept by preference.
Parameter call: string, one of TRUE = active, FALSE = inactive

Consider the following illustrative entries.
Compound: Cc1ccc(N2CC(C(=O)N3CCC4(CC3)CC(=O)c3ccccc3O4)CC2=O)cc1C (centres undefined)
Class: FALSE

Compound: O=S(=O)(c1ccccc1)N1CC[C@@H]2[C@H]1c1cc(C#Cc3cccc(F)c3)ccc1N[C@@H]2CO
Class: FALSE

Compound: O=S(=O)(c1ccccc1)N1CC[C@@H]2[C@@H](CO)Nc3ccc(-c4ccccc4F)cc3[C@@H]21
Class: FALSE

Compound: CCc1nc2c(OCCc3cccc(OC)c3)cccn2c1N(C)C(=O)c1ccc(C)cc1
Class: TRUE

Check the results log: what was the call for CCc1nc2c(OCc3cccc(OC)c3)cccn2c1N(C)C(=O)C(C)C ?
FALSE

What was the test verdict on O=S(=O)(c1ccc(F)cc1)N1CC[C@@H]2[C@@H](CO)Nc3ccc(-c4ccccc4F)cc3[C@@H]21 ?
TRUE

Could you check what this test reported for COc1ccccc1S(=O)(=O)N1CC[C@@H]2[C@H](CO)Nc3ccc(-c4ccccc4F)cc3[C@@H]21 ?
FALSE

Write down the call the test reported for this compound. Item: CCc1nc2c(OCCOc3ccccc3)cccn2c1N(C)C(=O)c1ccc(OC)cc1
FALSE

// param item: Cc1cccc(S(=O)(=O)N2CC[C@@H]3[C@H]2c2cc(C#Cc4ccc(F)cc4)ccc2N[C@@H]3CO)c1 ; yields the recorded call
TRUE

---

Assay: inhibitors of DENV2 cytopathic effect, primary screen, cell-based, plate reader, single concentration (AID 651640);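 note: 0% = median of neutral control wells and 100% = median of positive control wells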
Conditions: DENV2-infected cells, cytopathic effect rescue, at 9.99 µM
In all, about 350,000 compounds went through this assay and about 6,000 (1.7%) were called active. Inconclusive results (about 5%) are left out. No stated cut-off is given here; in the data, active means CPE inhibition above about 20% (passing the limit was not always enough); inconclusive means no clear call, values can overlap the other calls; tested in BHK-21 cells. The full list was thinned out, with actives kept by preference.
The categories you may choose from are class 1 = active, class 0 = inactive

Reference set (2 entries):
Molecule: C[C@H]1CN([C@@H](C)CO)C(=O)Cc2cc(NC(=O)CCCCCC(=O)Nc3ccccc3N)ccc2O[C@H]1CN(C)C(=O)Nc1ccc(F)cc1
Class: class 0

Molecule: C[C@H](CO)N1C[C@H](C)[C@H](CN(C)Cc2ccc(C(F)(F)F)cc2)Oc2ccc(NC(=O)CCCCCC(=O)Nc3ccccc3N)cc2CC1=O
Class: class 1

Tell me the assay call for C[C@@H]1CN([C@@H](C)CO)C(=O)Cc2cc(NC(=O)CCCCCC(=O)Nc3ccccc3N)ccc2O[C@H]1CN(C)Cc1ccc(Cl)c(Cl)c1 please.
class 1
